I'd be grateful if you could share measured pEC50 for these entries.
Target: ratM1 (Rattus norvegicus)
Construct: expressed in transfected cells; host or cells: CHO cells (stated generally for the assay, not specifically for rat M1)
Sequence (P08482 whole entry): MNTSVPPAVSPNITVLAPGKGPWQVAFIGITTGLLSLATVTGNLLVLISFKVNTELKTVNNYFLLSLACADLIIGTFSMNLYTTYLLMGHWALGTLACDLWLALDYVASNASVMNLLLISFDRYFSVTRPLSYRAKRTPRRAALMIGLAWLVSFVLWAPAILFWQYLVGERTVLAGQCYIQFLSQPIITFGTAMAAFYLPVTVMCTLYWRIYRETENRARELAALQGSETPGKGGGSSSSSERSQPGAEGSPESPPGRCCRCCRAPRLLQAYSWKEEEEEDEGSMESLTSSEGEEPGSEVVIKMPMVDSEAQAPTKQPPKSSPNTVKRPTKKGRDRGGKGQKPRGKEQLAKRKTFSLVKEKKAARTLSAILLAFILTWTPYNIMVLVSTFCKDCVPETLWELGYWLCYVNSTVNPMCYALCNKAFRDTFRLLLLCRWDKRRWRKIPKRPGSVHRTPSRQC
Assay: M1 PAM assay (FLIPR intracellular calcium), rat M1
Type: cell-based
Conditions: rat M1, FLIPR Ca2+; second value of the cell; read-out: ratM1 EC50
Scale: negative log10 of molar concentration, which is what pEC50 denotes.

Challenge: I would be grateful if you could share the reported pEC50 for O=C(NC1CCOCC1)c1cn(Cc2ccc(-c3nc[nH]n3)cc2)c2cccc(F)c12 .
Response given: 6.93

Challenge: I would be grateful if you could share the reported pEC50 for Cn1cc(-c2ccc(Cn3cc(C(=O)N[C@@H]4CCCC(F)(F)[C@H]4O)c4c(F)cccc43)c(F)c2)cn1 .
Response given: 7.06

Challenge: I would be grateful if you could share the reported pEC50 for Cn1cc(-c2ccc(Cn3cc(C(=O)N[C@H]4CCCC[C@@H]4O)c4c(F)cccc43)c(F)c2)cn1 .
Response given: 7.20

Challenge: I would be grateful if you could share the reported pEC50 for Cc1ccc(F)c2c(C(=O)NC3CCOCC3)cn(Cc3ccc(-c4cnn(C)c4)cc3F)c12 .
Response given: 7.08

Challenge: I would be grateful if you could share the reported pEC50 for Cn1cc(-c2ccc(Cn3nc(C(=O)N[C@H]4CCOC[C@@H]4O)c4c(F)cccc43)c(F)c2)cn1 (racemic) .
Response given: 6.83

FYI, the data here is from patent US9708259B2.
